# Protocol summary: Worst-case calculation (100% migration), standard EU Cube exposure model
# Condition label: product SBDEV980; 100% migration; 2.0 g/m^2 dry film
Where a name gives a salt, the structure may show the parent alone.
Recorded endpoint: Worst-case calculation as a percentage of SML (or restriction), EU Cube

[
  {
    "Compound": "c1ccc(-c2ccc(-c3nc(-c4ccc(-c5ccccc5)cc4)nc(-c4ccc(-c5ccccc5)cc4)n3)cc2)cc1",
    "Result": "0.3 percentage of SML (or restriction)"
  },
  {
    "Compound": "N#Cc1ccc(-c2ccccc2)cc1",
    "Result": "5 percentage of SML (or restriction)"
  },
  {
    "Compound": "CCCCOC(=O)CC(O)(CC(=O)OCCCC)C(=O)OCCCC [0000077-94-1, Tributyl citrate]",
    "Result": "53.4 percentage of SML (or restriction)"
  },
  {
    "Compound": "O=Cc1ccc(Cl)cc1",
    "Result": "14 percentage of SML (or restriction)"
  }
]
